Hello, the source for this data is patent US12448389B2, in case you need it.

Provide the recorded DC50 for the entries that follow.
measured target: SMARCA4-HiBiT (Homo sapiens, UniProt P51532)
Construct: SMARCA4-HiBiT knock-in Hela monoclonal cell (CS3023226); host or cells: HeLa monoclonal knock-in line (CRISPR HiBiT knock-in at the endogenous locus, heterozygous)
Sequence (P51532 whole entry): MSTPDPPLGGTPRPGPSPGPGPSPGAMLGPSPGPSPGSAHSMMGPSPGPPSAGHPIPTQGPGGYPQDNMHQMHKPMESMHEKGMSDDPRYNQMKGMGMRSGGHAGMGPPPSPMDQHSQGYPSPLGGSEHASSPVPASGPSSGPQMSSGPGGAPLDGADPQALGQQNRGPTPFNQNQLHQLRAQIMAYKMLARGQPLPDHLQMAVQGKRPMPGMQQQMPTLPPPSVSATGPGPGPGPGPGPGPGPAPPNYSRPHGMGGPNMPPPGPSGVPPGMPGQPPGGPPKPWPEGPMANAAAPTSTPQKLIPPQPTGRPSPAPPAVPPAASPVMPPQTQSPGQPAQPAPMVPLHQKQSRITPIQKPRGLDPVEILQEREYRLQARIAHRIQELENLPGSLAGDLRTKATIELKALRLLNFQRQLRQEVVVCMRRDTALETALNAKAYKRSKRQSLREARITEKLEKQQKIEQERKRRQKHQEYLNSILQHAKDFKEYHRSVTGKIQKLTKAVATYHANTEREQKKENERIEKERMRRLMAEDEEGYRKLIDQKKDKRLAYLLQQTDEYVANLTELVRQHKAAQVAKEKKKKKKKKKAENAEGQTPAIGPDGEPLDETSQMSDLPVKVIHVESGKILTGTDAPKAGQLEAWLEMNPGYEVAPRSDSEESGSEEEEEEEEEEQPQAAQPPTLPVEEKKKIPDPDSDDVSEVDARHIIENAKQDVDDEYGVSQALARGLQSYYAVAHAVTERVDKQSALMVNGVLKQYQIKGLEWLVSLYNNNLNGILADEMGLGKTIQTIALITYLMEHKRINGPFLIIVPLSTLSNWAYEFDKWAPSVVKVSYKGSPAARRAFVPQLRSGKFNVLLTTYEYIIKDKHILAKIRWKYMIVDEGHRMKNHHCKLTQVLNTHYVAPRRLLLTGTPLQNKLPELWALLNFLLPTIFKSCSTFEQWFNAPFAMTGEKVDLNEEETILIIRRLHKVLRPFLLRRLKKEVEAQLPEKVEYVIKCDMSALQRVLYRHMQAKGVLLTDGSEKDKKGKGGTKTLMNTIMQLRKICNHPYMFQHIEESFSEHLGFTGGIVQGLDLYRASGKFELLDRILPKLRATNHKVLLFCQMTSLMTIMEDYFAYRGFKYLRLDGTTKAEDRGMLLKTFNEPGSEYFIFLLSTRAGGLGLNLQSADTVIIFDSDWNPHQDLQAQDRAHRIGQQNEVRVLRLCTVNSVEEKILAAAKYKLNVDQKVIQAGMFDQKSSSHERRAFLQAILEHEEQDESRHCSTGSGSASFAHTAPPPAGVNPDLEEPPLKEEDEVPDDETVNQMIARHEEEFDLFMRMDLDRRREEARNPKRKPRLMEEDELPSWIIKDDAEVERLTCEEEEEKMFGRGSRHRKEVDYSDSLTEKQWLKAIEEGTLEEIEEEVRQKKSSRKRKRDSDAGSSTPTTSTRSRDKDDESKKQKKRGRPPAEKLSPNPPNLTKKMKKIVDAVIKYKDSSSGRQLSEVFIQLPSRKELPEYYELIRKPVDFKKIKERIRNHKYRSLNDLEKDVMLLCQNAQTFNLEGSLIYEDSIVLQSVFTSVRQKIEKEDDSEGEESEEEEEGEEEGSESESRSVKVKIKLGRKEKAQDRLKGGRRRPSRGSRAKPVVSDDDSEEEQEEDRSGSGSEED
protocol text: SMARCA4 HiBiT degradation assay in HeLa cells
Format: cell-based
measurement setup: 18 hours incubation, read-out: HeLa-HiBit-SM4 DC50

query: Identify the reported DC50 for the following entry. O=C1CCC(N2C(=O)c3ccc(N4CCC(CN5CCC6C(C5)C6CN5CCN6c7cc(-c8ccccc8O)nnc7NC[C@H]6C5)CC4)cc3C2=O)C(=O)N1 (some centres unmarked) [Example 46]
result: < 10 nM

query: Identify the reported DC50 for the following entry. C[C@@H]1CN(CC2CCN(c3ccc4c(c3)C(=O)N(C3CCC(=O)NC3=O)C4=O)CC2)CCN1C(=O)N1CCN2c3cc(-c4ccccc4O)nnc3NC[C@H]2C1 (some centres unmarked) [Example 115]
result: < 10 nM

query: Identify the reported DC50 for the following entry. O=C1CCC(N2Cc3ccc(N4CCOC(CN5CCN(C(=O)N6CCN7c8cc(-c9ccccc9O)nnc8NC[C@H]7C6)CC5)C4)cc3C2=O)C(=O)N1 (some centres unmarked) [Example 111]
result: 10 to 100 nM

query: Identify the reported DC50 for the following entry. CC(C)(C)C(=O)OCN1C(=O)CCC(N2C(=O)c3cccc(N4CCC(N5CCC(N6CCN7c8cc(-c9ccccc9O)nnc8NC[C@H]7C6)CC5)CC4)c3C2=O)C1=O (some centres unmarked) [Example 123]
result: < 10 nM

query: Identify the reported DC50 for the following entry. O=C1CCC(N2C(=O)c3ccc(N4CC(CN5CCC(C(=O)N6CCN7c8cc(-c9ccccc9O)nnc8NC[C@H]7C6)CC5)C4)cc3C2=O)C(=O)N1 (some centres unmarked) [Example 86]
result: 10 to 100 nM

----------
measured target: SMARCA4-HiBiT (Homo sapiens)
Construct: SMARCA4-HiBiT knock-in Hela monoclonal cell (CS3023226); host or cells: HeLa monoclonal knock-in line (CRISPR HiBiT knock-in at the endogenous locus, heterozygous)
protocol text: SMARCA4 HiBiT degradation assay in HeLa cells
Format: cell-based
measurement setup: 18 hours incubation, read-out: HeLa-HiBit-SM4 DC50
Provide the recorded DC50 for the entries that follow.

query: # return DC50 for CC1CN(CC2CCN(c3ccc4c(c3)C(=O)N(C3CCC(=O)NC3=O)C4=O)CC2)CCC1CN1CCN2c3cc(-c4ccccc4O)nnc3NC[C@H]2C1 (some centres unmarked) , test system: SMARCA4-HiBiT (Homo sapiens)
result: < 10 nM

query: # return DC50 for O=C1CCC(N2C(=O)c3ccc(N4CCC(CN5CCC(F)(CN6CCN7c8cc(-c9ccccc9O)nnc8NC[C@H]7C6)CC5)CC4)cc3C2=O)C(=O)N1 (some centres unmarked) , test system: SMARCA4-HiBiT (Homo sapiens)
result: < 10 nM

query: # return DC50 for CCC1CN(CC2CCN(c3ccc4c(c3)C(=O)N(C3CCC(=O)NC3=O)C4=O)CC2)CCN1C(=O)N1CCN2c3cc(-c4ccccc4O)nnc3NC[C@H]2C1 (some centres unmarked) , test system: SMARCA4-HiBiT (Homo sapiens)
result: 10 to 100 nM

query: # return DC50 for O=C1CCC(N2C(=O)c3ccc(N4CCC(CN5CCC6(CN7CCN8c9cc(-c%10ccccc%10O)nnc9NC[C@H]8C7)CC6C5)CC4)cc3C2=O)C(=O)N1 (some centres unmarked) , test system: SMARCA4-HiBiT (Homo sapiens)
result: < 10 nM

query: # return DC50 for CN(CCCCN1CCC(CN2CCN3c4cc(-c5ccccc5O)nnc4NC[C@H]3C2)CC1)c1ccc2c(c1)C(=O)N(C1CCC(=O)NC1=O)C2=O (some centres unmarked) , test system: SMARCA4-HiBiT (Homo sapiens)
result: 10 to 100 nM

query: # return DC50 for O=C1CCC(N2Cc3ccc(N4CC(CN5CCC(CN6CCN7c8cc(-c9ccccc9O)nnc8NC[C@H]7C6)CC5)C4)cc3C2=O)C(=O)N1 (some centres unmarked) , test system: SMARCA4-HiBiT (Homo sapiens)
result: < 10 nM

query: # return DC50 for O=C1CCC(N2C(=O)c3ccc(N4CCC(CN5CCC(CCN6CCN7c8cc(-c9ccccc9O)nnc8NC[C@H]7C6)CC5)CC4)cc3C2=O)C(=O)N1 (some centres unmarked) , test system: SMARCA4-HiBiT (Homo sapiens)
result: < 10 nM

query: # return DC50 for O=C1CCC(N2C(=O)c3ccc(N4CCO[C@H](CN5C[C@@H]6[C@H](C5)[C@H]6CN5CCN6c7cc(-c8ccccc8O)nnc7NC[C@H]6C5)C4)cc3C2=O)C(=O)N1 (some centres unmarked) , test system: SMARCA4-HiBiT (Homo sapiens)
result: < 10 nM

query: # return DC50 for CN(C(=O)N1CCN2c3cc(-c4ccccc4O)nnc3NC[C@H]2C1)C1CCN(CC2CCN(c3ccc4c(c3)CN(C3CCC(=O)NC3=O)C4=O)CC2)CC1 (some centres unmarked) , test system: SMARCA4-HiBiT (Homo sapiens)
result: < 10 nM

query: # return DC50 for O=C1CCC(N2C(=O)c3ccc(N4CCO[C@@H](CN5C[C@@H]6[C@H](C5)[C@H]6CN5CCN6c7cc(-c8ccccc8O)nnc7NC[C@H]6C5)C4)cc3C2=O)C(=O)N1 (some centres unmarked) , test system: SMARCA4-HiBiT (Homo sapiens)
result: < 10 nM

query: # return DC50 for O=C1CCC(N2Cc3ccc(C4CCN(CCN5CCC(CN6CCN7c8cc(-c9ccccc9O)nnc8NC[C@H]7C6)CC5)CC4)cc3C2=O)C(=O)N1 (some centres unmarked) , test system: SMARCA4-HiBiT (Homo sapiens)
result: 10 to 100 nM
